target: α1β2γ2 GABAA subtype receptor (Homo sapiens, UniProt P14867+P18507); test: oocyte electrophysiology, two electrode voltage-clamp, potentiation of GABA current; assay type: cell-based; conditions: Xenopus oocytes, human subunits, GABA EC10; read-out: oocyte electrophysiology maximum potentiation (%) α1β2γ2
Sequence (P14867 28-456): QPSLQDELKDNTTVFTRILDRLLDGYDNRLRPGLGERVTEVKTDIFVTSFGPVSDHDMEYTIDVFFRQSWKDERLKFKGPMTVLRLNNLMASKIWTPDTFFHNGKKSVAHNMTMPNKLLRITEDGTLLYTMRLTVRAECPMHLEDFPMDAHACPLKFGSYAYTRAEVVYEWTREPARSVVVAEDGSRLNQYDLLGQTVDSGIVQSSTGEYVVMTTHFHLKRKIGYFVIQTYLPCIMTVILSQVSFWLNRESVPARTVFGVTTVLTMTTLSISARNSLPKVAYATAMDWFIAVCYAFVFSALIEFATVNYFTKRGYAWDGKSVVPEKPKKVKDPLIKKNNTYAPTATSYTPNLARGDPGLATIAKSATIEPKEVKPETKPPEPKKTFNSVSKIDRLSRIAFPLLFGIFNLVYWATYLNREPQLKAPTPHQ
Sequence (P47870 25-512 partner limits assumed): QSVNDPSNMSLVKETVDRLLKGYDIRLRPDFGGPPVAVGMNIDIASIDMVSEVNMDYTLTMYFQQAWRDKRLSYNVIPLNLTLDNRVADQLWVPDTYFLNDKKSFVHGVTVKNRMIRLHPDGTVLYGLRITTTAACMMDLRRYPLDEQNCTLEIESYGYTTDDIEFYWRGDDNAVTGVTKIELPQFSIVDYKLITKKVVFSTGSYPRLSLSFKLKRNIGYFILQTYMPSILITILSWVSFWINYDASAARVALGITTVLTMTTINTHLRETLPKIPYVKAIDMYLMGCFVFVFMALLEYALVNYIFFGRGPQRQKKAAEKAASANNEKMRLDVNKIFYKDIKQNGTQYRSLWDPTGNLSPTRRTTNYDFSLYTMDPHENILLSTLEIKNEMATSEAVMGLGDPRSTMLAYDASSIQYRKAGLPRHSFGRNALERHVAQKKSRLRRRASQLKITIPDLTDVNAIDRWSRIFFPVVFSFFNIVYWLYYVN
Sequence (P18507 40-475): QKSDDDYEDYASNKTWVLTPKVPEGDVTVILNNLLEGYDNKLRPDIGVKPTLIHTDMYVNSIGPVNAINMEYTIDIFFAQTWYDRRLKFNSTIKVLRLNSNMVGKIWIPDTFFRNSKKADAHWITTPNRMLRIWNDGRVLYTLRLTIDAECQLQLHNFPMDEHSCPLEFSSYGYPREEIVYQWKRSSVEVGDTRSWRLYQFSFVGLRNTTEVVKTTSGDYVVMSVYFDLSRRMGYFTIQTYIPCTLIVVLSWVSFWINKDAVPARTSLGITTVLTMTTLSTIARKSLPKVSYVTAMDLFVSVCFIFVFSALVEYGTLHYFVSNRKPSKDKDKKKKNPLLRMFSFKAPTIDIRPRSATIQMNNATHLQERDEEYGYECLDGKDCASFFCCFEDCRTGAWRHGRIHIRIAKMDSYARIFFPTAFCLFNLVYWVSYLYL
property label: Emax (%)
Please respond with the number in % and leave the unit unwritten.

Completed entries (count: 3):
>  <input smiles>
O=c1c2c[nH]c3ccccc3n-2c(=O)n1-c1ccc(F)cc1

>  <Emax (%)>
0

$$$$
>  <input smiles>
COc1ccc(F)c(-c2ncc3[nH]c4c(c3n2)CCCC4)c1

>  <Emax (%)>
-11

$$$$
>  <input smiles>
O=C(Nc1ccccc1)c1c[nH]c2c1C(=O)CCCC2

>  <Emax (%)>
-17

$$$$

Now, please, on to the next compound.
So for "O=C(Nc1cccc(F)c1)c1c[nH]c2c(c1=O)CCC2" , the logged Emax turned out to be 0
